tgt: Human NK1 Receptor (Homo sapiens, UniProt P25103)
Construct: endogenous in cells; host or cells: Human lymphoma IM9 cells (whole cells)
Sequence (P25103 whole entry): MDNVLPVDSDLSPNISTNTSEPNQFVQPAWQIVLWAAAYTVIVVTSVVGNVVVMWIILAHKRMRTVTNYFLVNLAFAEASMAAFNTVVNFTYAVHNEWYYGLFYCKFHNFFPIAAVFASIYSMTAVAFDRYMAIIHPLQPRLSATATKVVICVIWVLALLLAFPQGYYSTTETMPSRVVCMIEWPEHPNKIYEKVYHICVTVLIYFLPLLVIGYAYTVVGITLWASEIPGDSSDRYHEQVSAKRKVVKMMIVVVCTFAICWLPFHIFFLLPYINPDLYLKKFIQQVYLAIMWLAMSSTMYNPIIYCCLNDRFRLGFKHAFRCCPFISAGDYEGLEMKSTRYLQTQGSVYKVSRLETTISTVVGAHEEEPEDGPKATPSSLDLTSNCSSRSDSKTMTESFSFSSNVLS
procedureText: In Vitro Human NK1 Receptor Binding Assay ([125I]Bolton-Hunter substance P displacement, IM9 cells)
conditionSet: Human lymphoma IM9 cells, [125I]Bolton-Hunter substance P; Table 3, array-synthesis products; read-out: IC50 (nM) hNK1
Measured log10(IC50) of individual entries
Values below are the log10 of the recorded IC50, with nM as the unit.

[[record]]
compound = "O=C(NCCc1ccccc1)C(Cc1c[nH]c2ccccc12)NCc1cc2ccccc2o1 (centres unmarked)"
tgt = "Human NK1 Receptor (Homo sapiens, UniProt P25103)"
reported = 1.89

[[record]]
compound = "CC(NC(=O)C(Cc1c[nH]c2ccccc12)NCc1cc2ccccc2o1)c1cccc2ccccc12 (centres unmarked) [Example 207]"
tgt = "Human NK1 Receptor (Homo sapiens, UniProt P25103)"
reported = 2.77

[[record]]
compound = "COc1ccc(CCNC(=O)C(Cc2c[nH]c3ccccc23)NCc2cc3ccccc3o2)cc1 (centres unmarked)"
tgt = "Human NK1 Receptor (Homo sapiens, UniProt P25103)"
reported = 2.29

[[record]]
compound = "CC(NC(=O)C(Cc1c[nH]c2ccccc12)NCc1cc2ccccc2o1)c1ccc(Cl)s1 (centres unmarked)"
tgt = "Human NK1 Receptor (Homo sapiens, UniProt P25103)"
reported = 1.18

[[record]]
compound = "Cc1ccccc1CNC(=O)C(Cc1c[nH]c2ccccc12)NCc1cc2ccccc2o1 (centres unmarked)"
tgt = "Human NK1 Receptor (Homo sapiens, UniProt P25103)"
reported = 2.23

[[record]]
compound = "O=C(NC(CO)CC1CCCCC1)C(Cc1c[nH]c2ccccc12)NCc1cc2ccccc2o1 (centres unmarked)"
tgt = "Human NK1 Receptor (Homo sapiens, UniProt P25103)"
reported = 3.34

[[record]]
compound = "CC(NC(=O)C(Cc1c[nH]c2ccccc12)NCc1cc2ccccc2o1)c1ccc(N(C)C)cc1 (centres unmarked)"
tgt = "Human NK1 Receptor (Homo sapiens, UniProt P25103)"
reported = 2.91

[[record]]
compound = "CN(C)c1ccc(CNC(=O)C(Cc2c[nH]c3ccccc23)NCc2cc3ccccc3o2)cc1 (centres unmarked)"
tgt = "Human NK1 Receptor (Homo sapiens, UniProt P25103)"
reported = 3.60

[[record]]
compound = "O=C(NCc1cccc(C(F)(F)F)c1)C(Cc1c[nH]c2ccccc12)NCc1cc2ccccc2o1 (centres unmarked)"
tgt = "Human NK1 Receptor (Homo sapiens, UniProt P25103)"
reported = 1.91

[[record]]
compound = "O=C(NCCn1cccc1)C(Cc1c[nH]c2ccccc12)NCc1cc2ccccc2o1 (centres unmarked)"
tgt = "Human NK1 Receptor (Homo sapiens, UniProt P25103)"
reported = 2.82


State the recorded log10(IC50) for this entry: O=C(NCCSCc1ccccc1)C(Cc1c[nH]c2ccccc12)NCc1cc2ccccc2o1 (centres unmarked)
3.13

State the recorded log10(IC50) for this entry: Cc1cccc(CNC(=O)C(Cc2c[nH]c3ccccc23)NCc2cc3ccccc3o2)c1 (centres unmarked)
1.52

----------
Measured IC50 of individual entries
tgt: Human NK1 Receptor (Homo sapiens)
Construct: endogenous in cells; host or cells: Human lymphoma IM9 cells (whole cells)
procedureText: In Vitro Human NK1 Receptor Binding Assay ([125I]Bolton-Hunter substance P displacement, IM9 cells)
conditionSet: human NK1 receptor, IM9 cells, [125I]Bolton-Hunter substance P; read-out: IC50 (nM) hNK1
Give the number; nM is assumed, so skip it.

Example molecules with recorded IC50:
[[record]]
molecule = "CC(NC(=O)C(C)(Cc1c[nH]c2ccccc12)NCc1cc2ccccc2o1)c1ccc(F)cc1 (stereo not shown) [compound 33]"
tgt = "Human NK1 Receptor (Homo sapiens)"
endpointname = "IC50"
reported = 9

[[record]]
molecule = "CC(Cc1c[nH]c2ccccc12)(NCc1cc2ccccc2o1)C(=O)NCc1ccc(Cl)c(Cl)c1 (stereo not shown) [compound 175]"
tgt = "Human NK1 Receptor (Homo sapiens)"
endpointname = "IC50"
reported = 96


State the recorded IC50 for this entry: CC(Cc1c[nH]c2ccccc12)(NCc1cc2ccccc2o1)C(=O)NC1CC1c1ccccc1 (stereo not shown) [compound 107]
4150

State the recorded IC50 for this entry: CC(Cc1c[nH]c2ccccc12)(NCc1cc2ccccc2o1)C(=O)NCC(C)(C)c1ccccc1 (stereo not shown) [compound 133]
4480

----------
Measured IC50 of individual entries
tgt: Human NK1 Receptor (Homo sapiens, UniProt P25103)
Construct: endogenous in cells; host or cells: Human lymphoma IM9 cells (whole cells)
procedureText: In Vitro Human NK1 Receptor Binding Assay ([125I]Bolton-Hunter substance P displacement, IM9 cells)
conditionSet: human NK1 receptor, IM9 cells, [125I]Bolton-Hunter substance P; read-out: IC50 (nM) hNK1

[[record]]
compound = "CC(Cc1c[nH]c2ccccc12)(NCc1cc2ccccc2o1)C(=O)NCCc1cccnc1 (stereo not shown)"
reported = "1300 nM"


State the recorded IC50 for this entry: CC(Cc1c[nH]c2ccccc12)(NCc1cc2ccccc2o1)C(=O)NCc1ccc(F)cc1Cl (stereo not shown)
230 nM

State the recorded IC50 for this entry: CC(Cc1c[nH]c2ccccc12)(NCc1cc2ccccc2o1)C(=O)NCCCn1ccnc1 (stereo not shown)
5370 nM

State the recorded IC50 for this entry: CC(Cc1c[nH]c2ccccc12)(NCc1cc2ccccc2o1)C(=O)NC12CN3CN(CN(C3)C1)C2 (stereo not shown)
> 10000 nM

State the recorded IC50 for this entry: CC(Cc1c[nH]c2ccccc12)(NCc1cc2ccccc2o1)C(=O)NC1CCc2ccccc2C1 (stereo not shown)
> 10000 nM

State the recorded IC50 for this entry: CC(Cc1c[nH]c2ccccc12)(NCc1cc2ccccc2o1)C(=O)NC1CCc2ccccc21 (stereo not shown) [compound 158]
2570 nM

State the recorded IC50 for this entry: CC(Cc1c[nH]c2ccccc12)(NCc1cc2ccccc2o1)C(=O)NCCN1CCNC1=O (stereo not shown)
> 10000 nM

----------
tgt: Human NK1 Receptor (Homo sapiens)
Construct: endogenous in cells; host or cells: Human lymphoma IM9 cells (whole cells)
procedureText: In Vitro Human NK1 Receptor Binding Assay ([125I]Bolton-Hunter substance P displacement, IM9 cells)
conditionSet: Human lymphoma IM9 cells, [125I]Bolton-Hunter substance P; Table 3, array-synthesis products; read-out: IC50 (nM) hNK1
Criterion: IC50 strictly less than 100 nM. Met: yes (1). Not met: no (0).

// below: answered molecules
[[record]]
molecule = "O=C(NCC1CCCO1)C(Cc1c[nH]c2ccccc12)NCc1cc2ccccc2o1 (centres unmarked)"
label = "no (0)"

[[record]]
molecule = "CC(NC(=O)C(Cc1c[nH]c2ccccc12)NCc1cc2ccccc2o1)c1ccc(F)cc1 (centres unmarked)"
label = "yes (1)"

[[record]]
molecule = "Cc1ccc(CNC(=O)C(Cc2c[nH]c3ccccc23)NCc2cc3ccccc3o2)cc1 (centres unmarked)"
label = "yes (1)"

[[record]]
molecule = "O=C(NC1CCCCC1)C(Cc1c[nH]c2ccccc12)NCc1cc2ccccc2o1 (centres unmarked)"
label = "no (0)"

[[record]]
molecule = "O=C(NCCN1CCCC1)C(Cc1c[nH]c2ccccc12)NCc1cc2ccccc2o1 (centres unmarked)"
label = "no (0)"


Please determine if O=C(NCCc1ccc(Cl)cc1)C(Cc1c[nH]c2ccccc12)NCc1cc2ccccc2o1 (centres unmarked) is below 100 nM in terms of IC50.
no (0)

Please determine if O=C(NCc1ccc2c(c1)OCO2)C(Cc1c[nH]c2ccccc12)NCc1cc2ccccc2o1 (centres unmarked) is below 100 nM in terms of IC50.
yes (1)

Please determine if COc1cccc(CCNC(=O)C(Cc2c[nH]c3ccccc23)NCc2cc3ccccc3o2)c1 (centres unmarked) is below 100 nM in terms of IC50.
no (0)

----------
tgt: Human NK1 Receptor (Homo sapiens, UniProt P25103)
Construct: endogenous in cells; host or cells: Human lymphoma IM9 cells (whole cells)
procedureText: In Vitro Human NK1 Receptor Binding Assay ([125I]Bolton-Hunter substance P displacement, IM9 cells)
conditionSet: human NK1 receptor, IM9 cells, [125I]Bolton-Hunter substance P; read-out: IC50 (nM) hNK1
endpointName: IC50 (nM)
Give the number; nM is assumed, so skip it.

[[record]]
molecule = "Cc1cccc(CNC(=O)C(C)(Cc2c[nH]c3ccccc23)NCc2cc3ccccc3o2)c1 (centres unmarked) [compound 129]"
endpointname = "IC50"
reported = 43

[[record]]
molecule = "CC(NC(=O)C(C)(Cc1c[nH]c2ccccc12)NCc1cc2ccccc2o1)c1ccc(N(C)C)cc1 (centres unmarked) [compound 39]"
endpointname = "IC50"
reported = 863

[[record]]
molecule = "COc1ccc(CNC(=O)C(C)(Cc2c[nH]c3ccccc23)NCc2cc3ccccc3o2)c(N)c1 (centres unmarked) [compound 188]"
endpointname = "IC50"
reported = 2280

[[record]]
molecule = "CC(Cc1c[nH]c2ccccc12)(NCc1cc2ccccc2o1)C(=O)NCC1CCCO1 (centres unmarked) [compound 138]"
endpointname = "IC50"
reported = 4870

[[record]]
molecule = "CC(Cc1c[nH]c2ccccc12)(NCc1cc2ccccc2o1)C(=O)NCC1CCCCC1 (centres unmarked) [compound 27]"
endpointname = "IC50"
reported = 311


State the recorded IC50 for this entry: CN1Cc2ccccc2CC1CNC(=O)C(C)(Cc1c[nH]c2ccccc12)NCc1cc2ccccc2o1 (centres unmarked) [compound 106]
4630

State the recorded IC50 for this entry: CCC(NC(=O)C(C)(Cc1c[nH]c2ccccc12)NCc1cc2ccccc2o1)c1ccccc1 (centres unmarked) [compound 162]
42
